For each of the molecules below, state its pIC50.
System: HEK293
Test: In vitro inhibitory activity against beta-amyloid peptide (Abeta) in HEK293/APP751swe cells
Format: functional, cell-based
Conditions: Homo sapiens
Just the number, please; pIC50 means minus log10 of the concentration in mol/L.

So for CCC[C@H](NC(=O)OC(C)(C)C)C(=O)N[C@@H](C)C(=O)N[C@@H](Cc1ccccc1)[C@@H](O)CC(C)C(=O)NC(C(=O)NCc1ccncc1)C(C)C (single isomer, unassigned) , the logged pIC50 turned out to be 5.85

So for CC(C[C@H](O)[C@H](Cc1ccccc1)NC(=O)[C@H](C)NC(=O)[C@H](CC(F)F)NC(=O)OC(C)(C)C)C(=O)NC(C(=O)NCc1ccncc1)C(C)C (single isomer, unassigned) , the logged pIC50 turned out to be 6.40

So for CC(C[C@H](O)[C@H](Cc1ccccc1)NC(=O)[C@H](C)NC(=O)[C@H](CC(F)(F)C(F)F)NC(=O)OC(C)(C)C)C(=O)NC(C(=O)NCc1ccncc1)C(C)C (single isomer, unassigned) , the logged pIC50 turned out to be 5.79

So for CSCC[C@H](NC(=O)[C@@H](NC(=O)OC(C)(C)C)C(C)C)C(=O)N[C@@H](Cc1ccccc1)[C@@H](O)C[C@@H](C)C(=O)N[C@H](C(=O)NCc1ccccc1)C(C)C , the logged pIC50 turned out to be 4.66
